Every entry's value here was drawn from patent US20230190697A1.

Test: Pharmacokinetics of nafamostat in male rats (whole blood, LC/MS/MS)
Type: in vivo
Conditions: rat, whole blood; male rats, oral 9 mg/kg (n=1)
test readout: AUC(0-t) (ng·h/mL)
Entry rule: numbers only, all in ng·h/mL.

**Q:** # query: AUC(0-t) of entry `N=C(N)c1ccc2cc(OC(=O)c3ccc(N=C(N)N)cc3)ccc2c1`
**A:** 8.8

---

Test: Pharmacokinetics of nafamostat in male rats (whole blood, LC/MS/MS)
Assay type: in vivo
Conditions: male, rat, whole blood, iv, 1 mg/kg, male rats, intravenous 1 mg/kg, non-compartmental; read-out: terminal t½ (converted)
test readout: half-life (min)
Entry rule: numbers only, all in min.

**Q:** # query: half-life of entry `N=C(N)c1ccc2cc(OC(=O)c3ccc(N=C(N)N)cc3)ccc2c1`
**A:** 110

---

Assay: Pharmacokinetics of nafamostat in male rats (whole blood, LC/MS/MS)
Type: in vivo
Conditions: rat, whole blood; male rats, oral 10 mg/kg (n=3)
test readout: AUC(0-t) (ng·h/mL)
Entry rule: numbers only, all in ng·h/mL.

**Q:** # query: AUC(0-t) of entry `N=C(N)c1ccc2cc(OC(=O)c3ccc(N=C(N)N)cc3)ccc2c1`
**A:** 12.6

---

Molecular target: hERG K+ channel (Homo sapiens, UniProt Q12809)
Sequence (Q12809 whole entry): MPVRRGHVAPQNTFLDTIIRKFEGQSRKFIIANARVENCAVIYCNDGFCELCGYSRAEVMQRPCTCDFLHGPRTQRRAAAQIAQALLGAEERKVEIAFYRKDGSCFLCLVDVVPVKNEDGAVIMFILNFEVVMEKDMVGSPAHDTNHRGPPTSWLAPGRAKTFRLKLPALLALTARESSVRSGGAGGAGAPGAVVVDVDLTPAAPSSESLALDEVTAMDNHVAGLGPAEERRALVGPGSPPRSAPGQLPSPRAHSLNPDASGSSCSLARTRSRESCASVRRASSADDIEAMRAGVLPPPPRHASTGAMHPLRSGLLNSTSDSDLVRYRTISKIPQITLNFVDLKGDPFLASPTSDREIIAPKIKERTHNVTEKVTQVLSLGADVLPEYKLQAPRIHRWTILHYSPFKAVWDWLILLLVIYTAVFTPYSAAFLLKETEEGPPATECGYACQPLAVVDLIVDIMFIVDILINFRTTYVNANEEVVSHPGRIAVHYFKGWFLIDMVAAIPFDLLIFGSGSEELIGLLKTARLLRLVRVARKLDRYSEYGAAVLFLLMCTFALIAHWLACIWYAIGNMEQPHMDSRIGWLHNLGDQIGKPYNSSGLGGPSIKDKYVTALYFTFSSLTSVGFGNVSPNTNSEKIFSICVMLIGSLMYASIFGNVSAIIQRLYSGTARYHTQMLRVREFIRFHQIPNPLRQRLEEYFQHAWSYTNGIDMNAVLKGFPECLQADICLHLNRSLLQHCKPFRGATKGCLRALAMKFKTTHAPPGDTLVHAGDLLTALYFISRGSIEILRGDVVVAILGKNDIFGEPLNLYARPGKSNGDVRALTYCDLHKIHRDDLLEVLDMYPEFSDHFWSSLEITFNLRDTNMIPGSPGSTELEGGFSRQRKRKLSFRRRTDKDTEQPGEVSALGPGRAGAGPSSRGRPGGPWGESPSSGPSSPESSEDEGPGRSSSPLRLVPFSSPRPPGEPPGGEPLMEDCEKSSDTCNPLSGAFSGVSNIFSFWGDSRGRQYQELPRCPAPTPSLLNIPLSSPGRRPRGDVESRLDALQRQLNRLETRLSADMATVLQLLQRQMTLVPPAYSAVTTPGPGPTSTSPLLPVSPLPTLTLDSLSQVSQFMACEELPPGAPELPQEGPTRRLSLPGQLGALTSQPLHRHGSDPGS
Experiment: cell-based
test readout: IC50

**Q:** # query: IC50 of entry N=C(N)c1ccc2cc(OC(=O)c3ccc(N=C(N)N)cc3)ccc2c1 [nafamostat]
**A:** > 50 µM

---

Assay: Pharmacokinetics of oral nafamostat mesylate solution in healthy male and female subjects
Assay type: in vivo, human
Settings: both sexes, blood; human, oral, 200 mg dose level, Day 1, 8 h post-dose, individual subjects
Counter-ions that a name gives are not always drawn.
test readout: concentration at 8 h

**Q:** # query: concentration at 8 h of entry N=C(N)c1ccc2cc(OC(=O)c3ccc(N=C(N)N)cc3)ccc2c1 [nafamostat mesylate, dimethanesulfonate]
**A:** < 0.1 ng/mL

---

Test: Pharmacokinetics of oral nafamostat mesylate solution in healthy male and female subjects
Format: in vivo, human
Settings: both sexes, blood; human, oral, 200 mg dose level, Day 1, 12 h post-dose, individual subjects
Structures can show the parent of a compound that is named as a salt.
test readout: concentration at 12 h

**Q:** # query: concentration at 12 h of entry N=C(N)c1ccc2cc(OC(=O)c3ccc(N=C(N)N)cc3)ccc2c1 [nafamostat mesylate, dimethanesulfonate]
**A:** < 0.1 ng/mL

---

Assay: Pharmacokinetics of nafamostat in male rats (whole blood, LC/MS/MS)
Type: in vivo
Conditions: rat, whole blood; male rats, intravenous 1 mg/kg
test readout: AUC(0-t) (ng·h/mL)
Entry rule: numbers only, all in ng·h/mL.

**Q:** # query: AUC(0-t) of entry N=C(N)c1ccc2cc(OC(=O)c3ccc(N=C(N)N)cc3)ccc2c1 [nafamostat]
**A:** 81.8

---

Assay: Pharmacokinetics of nafamostat in male rats (whole blood, LC/MS/MS)
Assay type: in vivo
Conditions: male, rat, whole blood; rats, oral vs intravenous; read-out: overall absolute oral bioavailability
Description: Example 1: Pharmacokinetic Studies. The pharmacokinetics of nafamostat were evaluated in male rats following an intravenous dose of 1 mg/kg or an oral dose of 9 mg/kg or 10 mg/kg. Nafamostat whole blood concentrations were determined by LC/MS/MS. Following intravenous dosing, nafamostat appeared in the blood of rats, with average (± SD) maximum whole blood concentrations (189 ± 54 ng/mL) being reached at the first measured time point (0.0830 hours) in all animals. […]
test readout: bioavailability (%)
Entry rule: numbers only, all in %.

**Q:** # query: bioavailability of entry `N=C(N)c1ccc2cc(OC(=O)c3ccc(N=C(N)N)cc3)ccc2c1`
**A:** 1.16

---

Test: Pharmacokinetics of nafamostat in male rats (whole blood, LC/MS/MS)
Type: in vivo
Settings: male, rat, whole blood, po, male rats, oral dosing, approximated; read-out: terminal t½ (converted)
test readout: half-life

**Q:** # query: half-life of entry `N=C(N)c1ccc2cc(OC(=O)c3ccc(N=C(N)N)cc3)ccc2c1`
**A:** ~3 h
